Sourced from paper PMC5114558

# target-desc: H3 (17-32) K23me3 peptide, fluorescein-labelled (UniProt P68431)
# assay-method-text: fluorescence polarisation; fluorescein-labelled histone peptide 3 nM, KDM4 DTD titrated 0.1-100 μM; 30 mM HEPES, 150 mM NaCl pH 7.4, 0.01% Triton X-100
So I've got a bunch of binders here, and I need their Kd values.
Param answer (str): number followed by unit.

Known Kd results, listed for orientation:
>>> observed_result("KDM4A-DTD N940A (domain or fragment) ALQSITAGQKVISKHKNGRFYQCEVVRLTTETFYEVNFDDGSFSDALYPEDIVSQDCLQFGPPAEGEVVQVRWTDGQVYGAKFVASHPIQMYQVEFEDGSQLVVKRDDVYTLDEELP")
"57.4 µM"
>>> observed_result("KDM4A-DTD N931D (domain or fragment) ALQSITAGQKVISKHKNGRFYQCEVVRLTTETFYEVDFDDGSFSDNLYPEDIVSQDCLQFGPPAEGEVVQVRWTDGQVYGAKFVASHPIQMYQVEFEDGSQLVVKRDDVYTLDEELP")
"0.85 µM"
>>> observed_result("KDM4A-DTD Y973A (aromatic cage substitution) (domain or fragment) ALQSITAGQKVISKHKNGRFYQCEVVRLTTETFYEVNFDDGSFSDNLYPEDIVSQDCLQFGPPAEGEVVQVRWTDGQVAGAKFVASHPIQMYQVEFEDGSQLVVKRDDVYTLDEELP")
"285 µM"

The record that follows has no Kd shown yet.
The recorded Kd for entry KDM4A-DTD N931R (domain or fragment) ALQSITAGQKVISKHKNGRFYQCEVVRLTTETFYEVRFDDGSFSDNLYPEDIVSQDCLQFGPPAEGEVVQVRWTDGQVYGAKFVASHPIQMYQVEFEDGSQLVVKRDDVYTLDEELP equals 73.9 µM
